System: MOLT-4
PROTOCOL_DETAILS: Cytotoxicity against Homo sapiens (human) MOLT4 cells after 48 hr by SRB assay
Format: functional
CONDITION_PARAMETERS: MOLT-4, 48 h
Where a name gives a salt, the structure may show the parent alone.
MEASURED_PROPERTY: GI50 (µM)

MOLECULE	UNIT_ABBREVIATION	LIMIT_QUALIFIER	EXPERIMENTAL_RESULT
COc1ccc(-c2cc(=O)c3ccccc3o2)cc1	µM	=	99.2
COc1cccc2c1C(=O)c1c(O)c3c(c(O)c1C2=O)C[C@@](O)(C(=O)CO)C[C@@H]3O[C@H]1C[C@H](N)[C@H](O)[C@H](C)O1 [DOXORUBICIN HYDROCHLORIDE]	µM	<	0.1
O=c1cc(-c2cccc([N+](=O)[O-])c2)oc2ccccc12	µM	=	36
O=c1cc(-c2ccccc2)oc2cc(O)cc(O)c12	µM	=	58.6
O=c1cc(-c2ccc(Cl)c([N+](=O)[O-])c2)oc2ccccc12	µM	=	50.7
COc1cc(OC)cc(-c2cc(=O)c3ccccc3o2)c1	µM	<	0.1
